B1: USP39 (parent)
chain: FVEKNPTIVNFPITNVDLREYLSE

- Variants of: B1
- assay: protein stability index of a GFP-peptide fusion (GPS, HEK-293T) (PSI 1-6); higher = more stable;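 also: lentivirally expressed fusions sorted by FACS into six bins by GFP to DsRed ratio, PSI derived from sequencing read proportions per bin multiplied by bin number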
- reportedConditions: c terminus: a fixed tail appended
Each entry gets No if its protein stability index stays under 2, and Yes if its protein stability index is 2 or above.

>>> print(df.to_string())
                      entrysequence  assignedcategory
 0  FVEKNPTIVNFPITNVDWREYLSE [L18W]               Yes
 1   FVEKNPTIKNFPITNVDLREYLSE [V9K]               Yes
 2  FVEKNPTIVNFPITNVDLREYLSY [E24Y]                No
 3   FVEKNPTIRNFPITNVDLREYLSE [V9R]               Yes
 4   FVEKDPTIVNFPITNVDLREYLSE [N5D]               Yes
 5   MVEKNPTIVNFPITNVDLREYLSE [F1M]               Yes
 6  FVEKNPTIVDFPITNVDLREYLSE [N10D]               Yes
 7  FVEKNPTIVNFPITNVDLKEYLSE [R19K]                No
 8   FVERNPTIVNFPITNVDLREYLSE [K4R]                No
 9  FVEKNPTIVNFPSTNVDLREYLSE [I13S]               Yes
10  FVEKNPTIVNFPITPVDLREYLSE [N15P]                No
11  FVEKNPTIVNFPITNVDLREGLSE [Y21G]               Yes
12   FVEKNPTFVNFPITNVDLREYLSE [I8F]               Yes
13  FVEKNPTIVNFPITNVDLRETLSE [Y21T]                No
14   DVEKNPTIVNFPITNVDLREYLSE [F1D]               Yes
15  FVEKNPTIVNFEITNVDLREYLSE [P12E]                No
16   FVEENPTIVNFPITNVDLREYLSE [K4E]               Yes
17  FVEKNPTIVNFPITNCDLREYLSE [V16C]                No
18  FVEKNPTIVNFPITNVDLRGYLSE [E20G]                No
19  FVEKNPTIVNFPITNVDLRKYLSE [E20K]               Yes
20   FVECNPTIVNFPITNVDLREYLSE [K4C]                No
21  FVEKNPTIVNFPITNVDLREYLSN [E24N]               Yes
22   FVVKNPTIVNFPITNVDLREYLSE [E3V]               Yes
23   FVEKIPTIVNFPITNVDLREYLSE [N5I]                No
24  FVEKNPTIVNFPITNVHLREYLSE [D17H]               Yes
25   FVHKNPTIVNFPITNVDLREYLSE [E3H]                No
26  FVEKNPTIVNFPITNVDLREYHSE [L22H]                No
27  FVEKNPTIVNFPITNVDHREYLSE [L18H]                No
28   FVEKNPTIYNFPITNVDLREYLSE [V9Y]               Yes
29  FVEKNPTIVNFPITNVDLAEYLSE [R19A]               Yes
30  FVEKNPTIVNFPITNHDLREYLSE [V16H]                No
31   FVEKQPTIVNFPITNVDLREYLSE [N5Q]               Yes
32  FVEKNPTIVNFPITNVDLREYLSM [E24M]                No
33  FVEKNPTIVNFPQTNVDLREYLSE [I13Q]               Yes
34   FIEKNPTIVNFPITNVDLREYLSE [V2I]               Yes
35   FVEKNPTIANFPITNVDLREYLSE [V9A]               Yes
36   FVEKNYTIVNFPITNVDLREYLSE [P6Y]               Yes
37   FVEKNPTYVNFPITNVDLREYLSE [I8Y]                No
38   FVEKNHTIVNFPITNVDLREYLSE [P6H]                No
39   FVEKNPTPVNFPITNVDLREYLSE [I8P]               Yes
40  FVEKNPTIVNFPITNVDAREYLSE [L18A]                No
41  FVEKNPTIVNFPITNVDLSEYLSE [R19S]                No
42   FVEKGPTIVNFPITNVDLREYLSE [N5G]                No
43   FVEKNPTIENFPITNVDLREYLSE [V9E]               Yes
44  FVEKNPTIVNFPITNVDLREYPSE [L22P]                No
45  FVEKNPTIVNFPITNVDLREALSE [Y21A]               Yes
46  FVEKNPTIVNFAITNVDLREYLSE [P12A]               Yes
47   FVEKNPTAVNFPITNVDLREYLSE [I8A]                No
48  FVEKNPTIVNFPITNVDLRTYLSE [E20T]                No
49  FVEKNPTIVNFPITNWDLREYLSE [V16W]                No
50  FVEKNPTIVNFPGTNVDLREYLSE [I13G]                No
51  FVEKNPTIVNFPIHNVDLREYLSE [T14H]               Yes
52  FVEKNPTIVNFPITNVDLREYLSS [E24S]                No
53   CVEKNPTIVNFPITNVDLREYLSE [F1C]               Yes
54   TVEKNPTIVNFPITNVDLREYLSE [F1T]               Yes
55  FVEKNPTIVNFPITNVDSREYLSE [L18S]                No
56  FVEKNPTIVNFPITNVQLREYLSE [D17Q]                No

Entry source: the supplement of paper PMC10567573
